- systemTested: GLP1R (Homo sapiens, UniProt P43220)
- Sequence (P43220 24-463): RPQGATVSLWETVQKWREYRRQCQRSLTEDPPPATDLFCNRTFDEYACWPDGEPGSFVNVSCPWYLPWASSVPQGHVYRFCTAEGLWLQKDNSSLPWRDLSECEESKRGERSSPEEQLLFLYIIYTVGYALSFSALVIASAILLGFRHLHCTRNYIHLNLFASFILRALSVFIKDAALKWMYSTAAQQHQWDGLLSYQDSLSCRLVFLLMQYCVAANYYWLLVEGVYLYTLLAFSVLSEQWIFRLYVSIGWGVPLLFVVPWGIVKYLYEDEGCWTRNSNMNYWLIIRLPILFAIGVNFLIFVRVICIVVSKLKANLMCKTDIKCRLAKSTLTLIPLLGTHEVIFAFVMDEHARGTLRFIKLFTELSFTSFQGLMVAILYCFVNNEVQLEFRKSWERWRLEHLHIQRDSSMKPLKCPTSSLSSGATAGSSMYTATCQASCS
- testSummary: GLP1R/CRE-Luc luciferase reporter gene assay (agonist activity)
- Assay type: cell-based
- Parameters: host or cells: HKE293 (so in the source)
- assayConditions: HKE293-Human GLP1R/CRE-luc cells, 5 h at 37° C., read-out: EC50 (nM) Assay 2
- Protocol: GLP1R-mediated agonist activity was determined with a cell-based functional assay utilizing a britelite plus luciferase reporter gene assay system. The stable cell line overexpress GLP1R and target response element. The stimulation with GLP1R agonist results in the upregulation of intracellular cAMP, which regulate the activities of cAMP-response element binding protein (CREB) and CREB-Luc. […] • 3.1% Activity is calculated as follow: […]
Threshold 20 nM. EC50 below it: Condition met. EC50 at it or above: Condition not met.

input: Please state whether EC50 is below 20 nM for O=C(O)c1ccc2nc(CN3CCC4(c5cccc(OCc6ccc(C(F)(F)F)cc6F)n5)CC4C3)n(C[C@@H]3CCO3)c2c1 (stereo partly shown)
output: Condition not met

input: Does the reported EC50 of the following compound sit strictly below 20 nM? COc1c(COc2cccc(C34CCN(Cc5nc6c(OC)cc(C(=O)O)cc6n5C[C@@H]5CCO5)CC3C4)n2)ccc(C#N)c1F (stereo partly shown)
output: Condition met

input: Please indicate whether the reported EC50 of COc1cc(C#N)ccc1COc1ccnc(C23CCN(Cc4nc5ccc(C(=O)O)cc5n4C[C@@H]4CCO4)CC2C3)n1 (single isomer, unassigned) [Compound 1-26-A] is strictly below 20 nM.
output: Condition not met

input: Hi there! Is EC50 for `N#Cc1ccc(COc2cccc(N3C4CCC3CN(Cc3nc5ccc(C(=O)O)cc5n3C[C@@H]3CCO3)C4)n2)c(F)c1` below 20 nM, do you know?
output: Condition not met

input: # check: EC50 < 20 nM for COc1c(COc2cccc(C34CCN(Cc5nc6ccc(C(=O)O)cc6n5C[C@@H]5CCO5)CC3C4)n2)ccc(C#N)c1F (stereo partly shown)
output: Condition not met

input: Please determine if N#Cc1ccc(COc2cccc(C34CCN(Cc5nc6c(F)cc(C(=O)O)cc6n5C[C@@H]5CCO5)CC3C4)n2)c(F)c1 (single isomer, unassigned) [Compound 1-10-B] is below 20 nM in terms of EC50.
output: Condition not met

input: Dear reviewer, please state whether COc1cc(C#N)ccc1COc1cccc(C23CCN(Cc4nc5c(C6CC6)cc(C(=O)O)cc5n4C[C@@H]4CCO4)CC2C3)n1 (stereo partly shown) has EC50 strictly beneath 20 nM.
output: Condition met

input: Would you kindly verify if EC50 of COc1cc(C(F)(F)F)ccc1COc1cccc(C23CCN(Cc4nc5ccc(C(=O)O)cc5n4C[C@@H]4CCO4)CC2C3)n1 (stereo partly shown) is strictly less than 20 nM?
output: Condition met

input: Strictly below 20 nM in EC50? N#Cc1ccc(COc2cccc(C34CCN(Cc5nc6ccc(C(=O)O)cc6n5C[C@@H]5CCO5)CC3C4)n2)c(F)c1 (stereo partly shown) [Compound 1-1]
output: Condition not met

input: EC50 strictly < 20 nM for this compound? COc1cc(C#N)ccc1COc1ccnc(C23CCN(Cc4nc5c(OC)cc(C(=O)O)cc5n4C[C@@H]4CCO4)CC2C3)n1 (single isomer, unassigned) [Compound 1-38-A]
output: Condition met

input: Dear colleague, could you confirm whether EC50 of C#Cc1ccc(COc2ccnc(C34CCN(Cc5nc6c(OC)cc(C(=O)O)cc6n5C[C@@H]5CCO5)CC3C4)n2)c(OC)c1 (stereo partly shown) falls below 20 nM? Thanks.
output: Condition met

input: State whether 20 nM exceeds EC50 recorded for CCOc1cc(C#N)ccc1COc1ccnc(C23CCN(Cc4nc5c(OC)cc(C(=O)O)cc5n4C[C@@H]4CCO4)CC2C3)n1 (stereo partly shown) .
output: Condition not met

input: Lab log: compare recorded EC50 with 20 nM; is it strictly lower for N#Cc1ccc(COc2cccc(C34CCN(Cc5nc6c(F)cc(C(=O)O)cc6n5C[C@@H]5CCO5)CC3C4)n2)c(F)c1 (single isomer, unassigned) [Compound 1-10-A] ?
output: Condition met
